Data origin: patent US20250197505A1

# Test Target: T1, human CD94 protein (human, UniProt Q13241 34-179, limits assumed)
# T1 sequence (looked up): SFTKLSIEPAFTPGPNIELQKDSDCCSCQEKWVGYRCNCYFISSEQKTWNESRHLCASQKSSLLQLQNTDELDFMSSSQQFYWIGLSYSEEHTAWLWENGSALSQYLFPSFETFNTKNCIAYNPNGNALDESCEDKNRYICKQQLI
# Procedure Text: OCTET BLI, Fab on human CD94 protein
Test Readout: koff
Report the figure along with its unit, number first.

Value lookup for koff; key = Ab.22 Fab (Fab, V domains shown, Fab version) VH: EVQLVESGGGLVKPGGSLRLSCAASGFTFSSYSMNWVRQAPGKGLEWVSSISTSSNFIYYADSVKGRFTISRDNAKNSLYLQMNSLRAEDTAVYYCARDLGRYYYYMDVWGKGTTVTVSS VL: DIVMTQSPSSLSASVGDRVTITCRASQSISSWLAWYQQKPGKAPKSLIYAASSLQSGVPSKFSGSGSGTDFTLTISSLQPEDVATYYCQKYNSAPFTFGPGTKVDIK 0.00238 s⁻¹
